These entries and their values trace back to patent US5175162A.

Target: benzodiazepine receptors
Assay: 3H-diazepam (3H-DZP) binding assay, displacement at benzodiazepine receptors
Conditions: tritiated diazepam 2 nM, 0° C., 20 min; read-out: Affinity for BZP receptors Ki
Quantity name: pKi
Conceptually, pKi converts a concentration in mol/L into minus its log10.

Previously resolved entries follow.
CCCc1cc2c(s1)[S+]([O-])CCc1cc(=O)n(-c3ccc(Cl)cc3)nc1-2 (stereo not drawn) [Example 70]	9.21
CC(O)c1cc2c(s1)S(=O)(=O)CCc1cc(=O)n(-c3ccc(Cl)cc3)nc1-2 (stereo not drawn) [Example 50]	9.01
O=c1cc2c(nn1-c1ccc(Cl)cc1)-c1cc(Br)sc1[S+]([O-])CC2 (stereo not drawn) [Example 26]	8.85
CCc1cc2c(s1)SCCc1cc(=O)n(-c3ccc(OC)cc3)nc1-2 [Example 58]	9.25
CCc1cc2c(s1)S(=O)(=O)CCc1cc(=O)n(-c3ccc(OC)cc3)nc1-2 [Example 64]	9.36

In: Recorded pKi of O=c1cc2c(nn1-c1ccc(Cl)cc1)-c1cc(Br)sc1S(=O)(=O)CC2 [Example 65] , please.
Out: 9.92

In: Would you mind telling me what pKi value was observed for CCc1cc2c(s1)SCCc1cc(=O)n(-c3ccc(Cl)cc3)nc1-2 [Example 22] ?
Out: 8.74

In: For the compound shown here, CCc1cc2c(s1)[S+]([O-])CCc1cc(=O)n(-c3ccc(Cl)cc3)nc1-2 (stereo not drawn) [Example 25] , give the reported pKi.
Out: 8.85

In: Give the measured pKi of CCc1cc2c(s1)S(=O)(=O)CCc1cc(=O)n(-c3ccc(Cl)cc3)nc1-2 [Example 28] .
Out: 9.20
